- tgt: TSPO (Rattus norvegicus)
- test.summary: TSPO radiometric binding assay, kidney lysate, displacement of [3H]PK11195
- conditions: read-out: Kidney Ki, low-affinity binding (mixed affinity binding)
readout: Ki (nM)

1) CN(C)C(=O)Cc1nn(-c2ccc(F)cc2)c(=O)c2c1c1ccc(Cl)cc1n2C ... 0.969

* * *

- tgt: TSPO (Rattus norvegicus, UniProt P16257)
- test.summary: TSPO radiometric binding assay, C6 glioma cell lysate, displacement of [3H]PK11195
- Set-up: frozen and thawed three times in lysis buffer; endogenous in cells; host or cells: C6 rat glioma cells
- conditions: Ki ± S.E.M. versus [3H]PK11195; C6 lysate; high-affinity value where binding is mixed; triplicate; read-out: C6 Glioma Ki
Catalogue of Ki values
readout: Ki

1) CN(C)C(=O)Cc1nn(-c2cccc(Cl)n2)c(=O)c2c1c1ccc(Cl)cc1n2C ... 2.34 pM
2) CN(C)C(=O)Cc1nn(-c2cccc(F)n2)c(=O)c2c1c1ccc(Cl)cc1n2C ... 1.19 pM
3) CN(C)C(=O)Cc1nn(-c2ccccn2)c(=O)c2c1c1ccc(Cl)cc1n2C ... 2410 pM
4) CN(C)C(=O)Cc1nn(-c2cccc(Br)n2)c(=O)c2c1c1ccc(Cl)cc1n2C ... 1.48 pM
